target-or-test-system: T1, HLA-A*0201 molecule expressed on human T2 cells (human)
T1 construct: surface HLA-A2 detected with anti-HLA-A2-PE (clone REA517); also called HLA-A2
test-summary: T2 cell HLA-A*0201 binding assay, anti-HLA-A2-PE flow cytometry
measured-attribute: mean relative fluorescence intensity at 1 µM peptide

binder	obs-value
SLDQKLFQL [ANKRD30A-H3]	41.9 % of HIV pol reference peptide
KILDTVHSC [ANKRD30A-H2]	1.8 % of HIV pol reference peptide
VLNPELLML (also called ENT207_B4) [KIF2C-B13]	42.1 % of HIV pol reference peptide
KVWSDVTPL [MMP11-H1]	24.9 % of HIV pol reference peptide
LILDTVHSL (also called ENT174_B1) [ANKRD30A-B2]	12.4 % of HIV pol reference peptide
ALIFGQLLT (also called ENT205-H) [TOP2A-H2]	0.3 % of HIV pol reference peptide
SLLSIQSYV (also called ENT172_B1) [UBE2C-B2]	52 % of HIV pol reference peptide
